Source: PubChem BioAssay (NCI)

# test-summary: NCI Yeast Anticancer Drug Screen. Data for the bub3 strain (AID 167)
# condition-info: S. cerevisiae bub3 mutant strain, at 50.0 µM, active compounds read high
The panel holds about 79,000 compounds, 15% with a hit somewhere; the sample as a whole holds those more often.
Binary call on growth inhibition: YES from 60% upward, NO beneath that.

> print(dat)
                                    compound  discrete.label
 1  COc1cc(O)c2c(c1)C(=O)C1=C(C2=O)[C@@H](C)OC(C)[C@H]1O (some centres undefined)              NO
 2  C/C(=N\NC(=S)Nc1ccc(C(=O)O)cc1C)c1ccc2ccccc2n1              NO
 3  CCCCCCCCCCCCCCCCCCOC(=O)Nc1ccc(C)c(NC(=O)OCCCCCCCCCCCCCCCCCC)c1             YES
 4            O=S(=O)(Nc1ccc(Cl)cc1)c1ccccc1              NO
 5              CCCCCCCCCCCCCCCC(=O)N1CCOCC1              NO
 6     Cc1ccc(/C=N/NS(=O)(=O)c2ccccc2)c(C)c1              NO
 7  COc1ccc(/C=C(\C(=O)c2ccc(O)cc2)c2ccccc2)cc1OC             YES
 8  [O-][n+]1c(-c2ccccc2)c(Cl)c(-c2ccccc2)n1O             YES
 9  CC(C)(C)C1=NN=C2c3ccccc3C(=O)C21 (centres undefined)             YES
10           Oc1ccc(C23CC4CC(CC(C4)C2)C3)cc1              NO
11   Cc1occc1C(=S)Nc1ccc(Cl)c(/C=N/OC(C)C)c1             YES
12  O=C(O)NCc1ccccc1 (tested in a mixture with another compound)             YES
13  COC(=O)[C@]1(C)CCCC2(C)C3=C(CCC21)CC1(CC3)SCCS1 (some centres undefined)             YES
14     CCCCCCCN=C(N)c1ccc(C(=O)OC2CCCCC2)cc1             YES
15   CCCCCCCCCCCCc1ccc(S(=O)(=O)O)cc1.[Zn+2]              NO
16  O=[N+]([O-])c1cc(Cl)cc(C(c2cc(Cl)cc([N+](=O)[O-])c2O)C(Cl)(Cl)Cl)c1O             YES
17  CC(C)(C)C(=O)Nc1ccc2c(c1)C(=O)c1ccccc1C2=O             YES
18                        Cn1c(=O)cc[nH]c1=O             YES
19  N#Cc1c(N)nc2c(N=Nc3ccccc3)c(N)nn2c1Nc1ccccc1              NO
20                 O=C(O)CCSc1ncnc2nc[nH]c12              NO
21  CN(C)CC1CCCCCC(Br)C1=O (centres undefined)              NO
22              CCCC(c1ccc(O)cc1)c1ccc(O)cc1             YES
23    Cc1ccc(C(C)C)c(O)c1N/N=C/c1cc(Cl)ccc1O              NO
24  CC(O)CCCOC(c1ccccc1)(c1ccccc1)c1ccccc1 (centres undefined)             YES
